- assay method text: Plasma protein binding
- Type: in vitro ADME
- reported conditions: mouse, mice
- Excerpt: […]. […] […].
endpoint name: fraction unbound
API note: the answer field is a bare number with no unit suffix.

(Q) Given CN1CCN(C2CCC(n3nc(-c4ccc(Oc5ccccc5)cc4)c4c(N)ncnc43)CC2)CC1 (stereo not shown) , state its recorded fraction unbound.
(A) 0.023

====

- assay method text: Murine pharmacokinetics (intravenous and oral)
- Type: in vivo
- reported conditions: serum; mouse, 25 mg/kg oral; read-out: serum half-life (converted)
endpoint name: half-life

(Q) Given CN1CCN(C2CCC(n3nc(-c4ccc(Oc5ccccc5)cc4)c4c(N)ncnc43)CC2)CC1 (stereo not shown) , state its recorded half-life.
(A) 16.9 h
